# SYSTEM_NAME: Cathepsin S (Homo sapiens)
# Sequence (P25774 whole entry): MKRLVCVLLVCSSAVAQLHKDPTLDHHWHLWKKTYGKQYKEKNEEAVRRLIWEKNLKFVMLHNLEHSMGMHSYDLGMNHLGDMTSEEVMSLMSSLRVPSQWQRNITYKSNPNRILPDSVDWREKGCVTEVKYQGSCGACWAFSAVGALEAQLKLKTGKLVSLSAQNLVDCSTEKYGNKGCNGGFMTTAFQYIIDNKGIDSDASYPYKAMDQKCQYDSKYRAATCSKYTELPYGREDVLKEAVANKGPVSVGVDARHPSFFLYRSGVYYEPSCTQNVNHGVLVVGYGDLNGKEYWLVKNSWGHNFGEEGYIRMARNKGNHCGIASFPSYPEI
# TEST_NAME: Inhibition of human recombinant cathepsin S using Cbz-Phe-Arg-AMC as substrate incubated for 60 mins measured for 20 mins by spectrofluorometrical analysis
PARAMETER: Ki (nM)

In the examples that follow, each entry is paired with its recorded Ki.
CHEMICAL_STRING	SYSTEM_NAME	VALUE_UNIT	DATA_VALUE
COC(=O)Cn1cc(COC[C@@H](C#N)NC(=O)[C@H](Cc2cccc(Br)c2)NC(=O)c2ccc(-c3ccccc3)cc2)nn1	Cathepsin S (Homo sapiens)	nM	186
N#C[C@H](CCOCc1cn(CCC(=O)O)nn1)NC(=O)[C@H](Cc1ccccc1)NC(=O)OCc1ccccc1	Cathepsin S (Homo sapiens)	nM	490
N#CCNC(=O)[C@H](Cc1cccc(-c2ccccc2)c1)NC(=O)c1ccc(-c2ccccc2)cc1	Cathepsin S (Homo sapiens)	nM	2660
N#C[C@H](COCc1cn(CCC(=O)O)nn1)NC(=O)[C@H](Cc1ccccc1)NC(=O)OCc1ccccc1	Cathepsin S (Homo sapiens)	nM	2250
N#CCNC(=O)[C@H](Cc1ccc2ccccc2c1)NC(=O)c1ccc(-c2ccccc2)cc1	Cathepsin S (Homo sapiens)	nM	180

P: N#C[C@H](COCc1cn(CC(=O)O)nn1)NC(=O)[C@H](Cc1cccc(Br)c1)NC(=O)c1ccc(-c2ccccc2)cc1
Q: N#C[C@H](CCOCc1cn(CC(=O)O)nn1)NC(=O)[C@H](Cc1ccccc1)NC(=O)OCc1ccccc1
Which of these two has the smaller recorded Ki: P or Q ? Answer by stating the label of the chosen item.
P
(P: 352 nM, Q: 1000 nM)

----------
# SYSTEM_NAME: Cathepsin B (Homo sapiens, UniProt P07858)
# TEST_NAME: Inhibition of human liver cathepsin B using Cbz-Arg-Arg-pNA as substrate at pH 6 incubated for 30 mins measured for 20 mins by photometrical analysis
PARAMETER: Ki

Cathepsin B (Homo sapiens, UniProt P07858) / Ki / N#C[C@H](CCOCc1cn(CCC(=O)O)nn1)NC(=O)[C@H](Cc1ccccc1)NC(=O)OCc1ccccc1 : value?
196000 nM

Now give it for CCC[C@H](NC(=O)OC(C)(C)C)C(=O)NCC#N too.
> 330 nM

Field entry: N#CCNC(=O)[C@H](Cc1ccc2ccccc2c1)NC(=O)c1ccc(-c2ccccc2)cc1
126 nM

Same for N#CCNC(=O)[C@H](CC1CCCCC1)NC(=O)c1ccc(-c2ccccc2)cc1
> 330 nM

Follow-up entry: CC(C)(C)OC(=O)NCC(=O)NCC#N
> 330 nM

Would you kindly repeat that for CC(C)(C)OC(=O)N[C@@H](Cc1ccc(O)cc1)C(=O)NCC#N ?
> 330 nM

# repeat for CN(CC#N)C(=O)[C@H](Cc1ccccc1)NC(=O)OC(C)(C)C
> 330 nM

Try CSCC[C@@H](C#N)NC(=O)C(CC(C)C)NC(=O)c1ccc(-c2ccccc2)cc1 (stereo not given in full) next.
> 330 nM

Next compound: CC(=O)N[C@@H](Cc1ccccc1)C(=O)NCC#N
> 330 nM

// same read-out, input: CC(C)(C)OC(=O)N[C@H](C(=O)NCC#N)c1ccccc1
> 330 nM

----------
# SYSTEM_NAME: Cathepsin B (Homo sapiens, UniProt P07858)
# TEST_NAME: Inhibition of human liver cathepsin B using Cbz-Arg-Arg-pNA as substrate at pH 6 incubated for 30 mins measured for 20 mins by photometrical analysis
pKi: −log10 of the molar value.
PARAMETER: pKi

CHEMICAL_STRING	DATA_VALUE
N#CCNC(=O)[C@H](Cc1ccccc1)NC(=O)c1ccc(-c2ccccc2)cc1	5.41

A: CC(C)(C)OC(=O)N[C@@H](Cc1ccc2ccccc2c1)C(=O)NCC#N
B: N#C[C@H](CCOCc1cn(CC(=O)O)nn1)NC(=O)[C@H](Cc1ccccc1)NC(=O)OCc1ccccc1
// max by pKi over [ A , B ] # reply format: chosen label
A
(A: 5.46, B: 4.00)

----------
# SYSTEM_NAME: Cathepsin B (Homo sapiens, UniProt P07858)
# TEST_NAME: Inhibition of human liver cathepsin B using Cbz-Arg-Arg-pNA as substrate at pH 6 incubated for 30 mins measured for 20 mins by photometrical analysis
pKi: −log10 of the molar value.
PARAMETER: pKi

Solved entries (count: 3):
CHEMICAL_STRING	pKi
N#CCNC(=O)[C@H](Cc1ccc(O)cc1)NC(=O)OCc1ccccc1	< 6.48
CC(C)(C)OC(=O)N[C@H](Cc1ccccc1)C(=O)NCC#N	< 6.48
CC(C)(C)OC(=O)N[C@@H](COCc1ccccc1)C(=O)NCC#N	< 6.48

Given N#C[C@H](Cc1cn(CC(=O)O)nn1)NC(=O)[C@H](Cc1cccc(Br)c1)NC(=O)c1ccc(-c2ccccc2)cc1 , state its recorded pKi.
4.95

----------
Some compounds, each annotated with its measured pKi.
# SYSTEM_NAME: UniProtKB P07858
# TEST_NAME: Inhibition of human liver cathepsin B using Cbz-Arg-Arg-pNA as substrate at pH 6 incubated for 30 mins measured for 20 mins by photometrical analysis
pKi: −log10 of the molar value.

// solved cases for pKi follow
COMPOUND	SYSTEM_NAME	pKi
CC(C)[C@H](NC(=O)OC(C)(C)C)C(=O)NCC#N	UniProtKB P07858	< 6.48
CC(C)(C)OC(=O)N[C@@H](Cc1ccccc1Br)C(=O)NCC#N	UniProtKB P07858	< 6.48
N#C[C@H](COCc1cn(CC(=O)O)nn1)NC(=O)[C@H](Cc1cccc(Br)c1)NC(=O)c1ccc(-c2ccccc2)cc1	UniProtKB P07858	7.38
N#C[C@H](COCc1cn(CCC(=O)O)nn1)NC(=O)[C@H](Cc1ccccc1)NC(=O)OCc1ccccc1	UniProtKB P07858	4.48
CC(C)(C)OC(=O)N[C@@H](Cc1ccco1)C(=O)NCC#N	UniProtKB P07858	< 6.48

# input for lookup
Param readout= pKi; system= UniProtKB P07858; entry= CCC(C)[C@H](NC(=O)OC(C)(C)C)C(=O)NCC#N (stereo not given in full) ; returns value.
< 6.48

----------
# SYSTEM_NAME: UniProt:P07858
# TEST_NAME: Inhibition of human liver cathepsin B using Cbz-Arg-Arg-pNA as substrate at pH 6 incubated for 30 mins measured for 20 mins by photometrical analysis
Listed molecules paired with reported Ki

Which Ki is reported for this molecule? CC(C)(C)OC(=O)N[C@@H](CC1CC1)C(=O)NCC#N
> 330 nM

Then CC(C)(C)OC(=O)N[C@@H](Cc1ccccc1)C(=O)NCC#N ?
37000 nM

Moving on to the next molecule: C[C@H](NC(=O)OC(C)(C)C)C(=O)NCC#N
> 330 nM

Now try N#CCNC(=O)C1(NC(=O)c2ccc(-c3noc(-c4cccs4)n3)cc2)CCCCC1 .
> 330 nM
